Just for reference, PubChem BioAssay (EPA / NIEHS) is where these values come from.

# test-protocol: BSK_KF3CT_SRB: Viability Assessment in the BioMAP Diversity Plus: KF3CT Assay (AID 2283069);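 also: total protein by sulforhodamine B staining as a cytotoxicity measure; read 24 h after compound addition; fitted for both signal gain and loss against DMSO baseline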
# stated-conditions: primary human keratinocytes with fibroblasts
Calls of active or inactive are those of the source. The calls were made as follows: active = hit-call score of the fitted dose curve at least 0.9, where 1 is the maximum; inactive = score below 0.9.
readout-kind: AC50

Use these answered entries as a reference point.
compound	AC50
C=C(C)C(=O)OCC(CC)(COC(=O)C(=C)C)COC(=O)C(=C)C	inactive
CCN(CC)C(=O)N(CC)CC	inactive
CC(C=O)Cc1ccc(C(C)(C)C)cc1 (stereo unspecified)	inactive
CC(C)(N=C=O)c1cccc(C(C)(C)N=C=O)c1	inactive
C[C@@H]1CCN(C(=O)[C@H](CCCN=C(N)N)NS(=O)(=O)c2cccc3c2NC[C@H](C)C3)[C@@H](C(=O)O)C1	inactive
C=CC(C)(O)CCC=C(C)C (stereo unspecified)	inactive

Would you mind telling me what AC50 value was observed for `Cc1cc(CCC(=O)OCCOCCOCCOC(=O)CCc2cc(C)c(O)c(C(C)(C)C)c2)cc(C(C)(C)C)c1O` ?
inactive

Query `C=C(C)C(=O)OCCOCCOCCOC(=O)C(=C)C` next
inactive

Now consider `c1ccc(Oc2ccccc2)cc1` and answer again.
inactive
